biological target: T1, recombinant LILRB1 ECD (human, UniProt Q8NHL6 24-461); experiment: BLI, IgG on AHC sensor, ECD in solution
T1 construct: also called biotinylated LILRB1 ECD
T1 sequence (Q8NHL6 24-461 limits assumed): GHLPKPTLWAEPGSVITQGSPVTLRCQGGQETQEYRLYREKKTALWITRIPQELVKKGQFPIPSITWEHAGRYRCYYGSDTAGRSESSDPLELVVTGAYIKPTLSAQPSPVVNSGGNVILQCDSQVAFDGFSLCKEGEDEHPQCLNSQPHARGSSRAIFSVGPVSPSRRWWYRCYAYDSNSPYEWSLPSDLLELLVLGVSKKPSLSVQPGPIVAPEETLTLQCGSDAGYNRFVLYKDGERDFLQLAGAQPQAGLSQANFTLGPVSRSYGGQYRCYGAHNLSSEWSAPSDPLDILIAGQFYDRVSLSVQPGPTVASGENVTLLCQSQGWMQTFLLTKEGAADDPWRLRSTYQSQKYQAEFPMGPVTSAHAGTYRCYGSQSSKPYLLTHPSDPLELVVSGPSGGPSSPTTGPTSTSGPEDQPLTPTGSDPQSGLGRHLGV
pKd: −log10 of the molar value.
Binary classification by pKd, with 8 as an inclusive lower bound for Met; all other cases are Not met.

Observe how each entry below is paired with its result.
BINDER	LABEL CLASS
A-020 (antibody, V domains shown, tested as IgG) VH: QVQLVQSGAEVKKPGSSVKVSCKASGGTFQTYAISWVRQAPGQGLEWMGSIIPKFYQSNYAYKFQGRVTITADESTSTAYMELSSLRSEDTAVYYCAKDLGTYSSGWPYYYGMDVWGQGTTVTVSS VL: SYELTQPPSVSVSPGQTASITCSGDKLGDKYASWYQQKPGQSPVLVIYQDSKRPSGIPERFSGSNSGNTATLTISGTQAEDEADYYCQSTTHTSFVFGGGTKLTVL	Not met
A-019 (antibody, V domains shown, tested as IgG) VH: QVQLVQSGAEVKKPGSSVKVSCKASGYTFTTSAMNWVRQAPGQGLEWMGGIIPYFSTANYAPKFQGRVTITADESTSTAYMELSSLRSEDTAVYYCAKDLGTYSSGWPYYYGMDVWGQGTTVTVSS VL: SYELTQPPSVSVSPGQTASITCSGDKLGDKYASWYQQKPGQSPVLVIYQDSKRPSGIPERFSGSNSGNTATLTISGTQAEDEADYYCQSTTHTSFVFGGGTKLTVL	Not met

Input: Can A-009 (antibody, V domains shown, tested as IgG) VH: QVQLVQSGAEVKKPGSSVKVSCKASGGTFSVTAILWVRQAPGQGLEWMGGIIPSFTSANYASKFQGRVTITADESTSTAYMELSSLRSEDTAVYYCAKDLGTYSSGWPYYYGMDVWGQGTTVTVSS VL: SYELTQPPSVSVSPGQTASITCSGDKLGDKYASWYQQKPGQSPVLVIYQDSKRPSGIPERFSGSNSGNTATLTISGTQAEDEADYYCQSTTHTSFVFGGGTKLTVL be said to have pKd at or above 8?
Output: Met
